Data origin, for the record: patent US8143421B2

- Tested on: HIV-1 strain LAI
- procedure_text: Cellular anti-HIV assay, MT4 cells, MTT readout, wild type HIV-1 strain LAI
- Format: cell-based
- recorded_conditions: Table 4; wild type HIV-LAI strain
Listed here: items and their measured WT (pIC50 against wild type HIV-LAI strain).
// no unit, no text: just the number

>>> test_result("CC(C)CN(CC(O)C(Cc1ccccc1)NC(=O)OC1COC2OCCC12)S(=O)(=O)c1ccc2nc(N)n(C)c2c1 (stereo not drawn)")
6.6

Field: next molecule
Looking for the measured WT (pIC50 against wild type HIV-LAI strain) of "CC(C)CN(C[C@@H](O)[C@H](Cc1ccccc1)NC(=O)OCc1cncs1)S(=O)(=O)c1ccc2nc(N)[nH]c2c1" , can you help?
5.7

###

- Tested on: mutant F
- procedure_text: Antiviral spectrum, fold resistance towards mutant F
- Type: cell-based
- recorded_conditions: FR=IC50(mutant strain)/IC50(HIV-1 strain LAI)
- Procedure: Because of the increasing emergence of drug resistant HIV strains, the present compounds were tested for their potency against clinically isolated HIV strains harboring several mutations. These mutations are associated with resistance to protease inhibitors and result in viruses that show various degrees of phenotypic cross-resistance to the currently commercially available drugs such as for instance saquinavir, ritonavir, nelfinavir, indinavir and amprenavir. […]
reported_metric: FR towards mutant F

# annotated cases, reported FR towards mutant F shown
>>> test_result("CC(C)CN(C[C@@H](O)[C@H](Cc1ccccc1)NC(=O)OCc1cccnc1)S(=O)(=O)c1ccc2nc(N)[nH]c2c1")
1.7
>>> test_result("COC(=O)Nc1nc2ccc(S(=O)(=O)N(CC(C)C)C[C@@H](O)[C@H](Cc3ccccc3)NC(=O)c3ccc(N)cc3C)cc2[nH]1")
0.69
>>> test_result("COC(=O)Nc1nc2ccc(S(=O)(=O)N(CC(C)C)C[C@@H](O)[C@H](Cc3ccccc3)NC(=O)COc3c(C)cc(N(C)C)cc3C)cc2[nH]1")
83
>>> test_result("CC(C)CN(C[C@@H](O)[C@H](Cc1ccccc1)NC(=O)O[C@H]1CCOC1)S(=O)(=O)c1ccc2ncn(CCc3ccccc3)c2c1")
269
>>> test_result("CC(C)CN(C[C@@H](O)[C@H](Cc1ccccc1)NC(=O)OCc1cncs1)S(=O)(=O)c1ccc2nc(N)[nH]c2c1")
0.30

Lab request: please report FR towards mutant F under test system mutant F for "COC(=O)Nc1nc2ccc(S(=O)(=O)N(CC(C)C)C[C@@H](O)[C@H](Cc3ccccc3)NC(=O)c3ccc([N+](=O)[O-])cc3C)cc2[nH]1"
7.1

Lab request: please report FR towards mutant F under test system mutant F for "Cc1nc2ccc(S(=O)(=O)N(CC(C)C)C[C@@H](O)[C@H](Cc3ccccc3)NC(=O)O[C@H]3CO[C@H]4OCC[C@H]43)cc2n1Cc1ccccc1"
162

Lab request: please report FR towards mutant F under test system mutant F for "CC(C)CN(C[C@@H](O)[C@H](Cc1ccccc1)NC(=O)O[C@H]1CO[C@H]2OCC[C@H]21)S(=O)(=O)c1ccc2ncn(Cc3ccccc3)c2c1"
40

Lab request: please report FR towards mutant F under test system mutant F for "CC(C)CN(C[C@@H](O)[C@H](Cc1ccccc1)NC(=O)O[C@H]1CCOC1)S(=O)(=O)c1ccc2ncn(C)c2c1"
288

###

- System: mutant A
- Format: cell-based
- recorded_conditions: FR=IC50(mutant strain)/IC50(HIV-1 strain LAI)
Response field label takes rule met when FR value towards mutant A is strictly below 6 and rule not met in all other cases.

>>> cat("Cc1cccc(C)c1OCC(=O)N[C@@H](Cc1ccccc1)[C@H](O)CN(CC(C)C)S(=O)(=O)c1ccc2nc(N)[nH]c2c1")
"rule met"
>>> cat("CC(C)CN(C[C@@H](O)[C@H](Cc1ccccc1)NC(=O)OC1COC2OCCC12)S(=O)(=O)c1ccc2nc(NC(=O)NCCN(C)C)[nH]c2c1 (stereo partly drawn)")
"rule met"
>>> cat("COC(=O)Nc1nc2ccc(S(=O)(=O)N(CC(C)C)C[C@@H](O)[C@H](Cc3ccccc3)NC(=O)COc3c(C)cc(C#N)cc3C)cc2[nH]1")
"rule met"
>>> cat("CC(=O)Nc1nc2ccc(S(=O)(=O)N(CC(C)C)C[C@@H](O)[C@H](Cc3ccccc3)NC(=O)OC3COC4OCCC34)cc2[nH]1 (stereo partly drawn)")
"rule met"
>>> cat("COC(=O)Nc1nc2ccc(S(=O)(=O)N(CC(C)C)C[C@@H](O)[C@H](Cc3ccccc3)NC(=O)COc3c(C)cc(CN)cc3C)cc2[nH]1")
"rule not met"

Decide: FR value towards mutant A of "COC(=O)Nc1nc2ccc(S(=O)(=O)N(CC(C)C)C[C@@H](O)[C@H](Cc3ccccc3)NC(=O)c3ccc([N+](=O)[O-])cc3C)cc2[nH]1" strictly below 6?
rule met

Decide: FR value towards mutant A of CC(C)CN(CC(O)C(Cc1ccccc1)NC(=O)OC1COC2OCCC12)S(=O)(=O)c1ccc2ncn(Cc3ccncc3)c2c1 (stereo not drawn) strictly below 6?
rule met

Decide: FR value towards mutant A of CC(C)CN(C[C@@H](O)[C@H](Cc1ccccc1)NC(=O)OC1COC2OCCC12)S(=O)(=O)c1ccc2nc[nH]c2c1 (stereo partly drawn) strictly below 6?
rule met

Decide: FR value towards mutant A of "Cc1cccc(C)c1OCC(=O)N[C@@H](Cc1ccccc1)[C@H](O)CN(CC(C)C)S(=O)(=O)c1ccc2ncn(C)c2c1" strictly below 6?
rule not met

Decide: FR value towards mutant A of COC(=O)Nc1nc2ccc(S(=O)(=O)N(CC(C)C)C[C@@H](O)[C@H](Cc3ccccc3)NC(=O)COc3c(C)cccc3C)cc2[nH]1 [Compound 8] strictly below 6?
rule met

Decide: FR value towards mutant A of "CC(=O)Nc1nc2ccc(S(=O)(=O)N(CC(C)C)C[C@@H](O)[C@H](Cc3ccccc3)NC(=O)O[C@H]3CCOC3)cc2[nH]1" strictly below 6?
rule met

Decide: FR value towards mutant A of "CC(C)CN(C[C@@H](O)[C@H](Cc1ccccc1)NC(=O)OCc1cncs1)S(=O)(=O)c1ccc2ncn(CC(C)C)c2c1" strictly below 6?
rule not met
